- Test system: TRKB;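 also: KINOMEscan kinase panel screen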
- CONDITION LABEL: concentration: 1 μM,replicates: in singlicate; n = 1
Criterion: %Inh meeting or surpassing 40%. Met: true. Not met: false.

COMPOUND	LABEL CLASS
Cl.Nc1n[nH]c2cc(-c3ccccn3)ccc12 [GSK2189892]	false
O=C(Nc1ccc(Oc2ccc3nc(NC(=O)C4CC4)cn3n2)c(F)c1)c1cccn(-c2ccccc2)c1=O	true
Cc1cccc2c(-c3ccncc3)c(-c3ccc(F)cc3)nn12.Cl [GW461487]	false
FC(F)(F)c1cc(Br)cc(Nc2nccc(-c3cnn4ncccc34)n2)c1 [GW810578]	false
Cn1ccc2ncnc(Oc3ccc(NC(=O)Nc4ccnc(C(F)(F)F)c4)c(Cl)c3)c21	false
C[C@@H]1CCN(C(=O)N2CCCC2)C[C@@H]1N(C)c1ncnc2[nH]ccc12	true
Cc1n[nH]c2cc(Nc3ccnc(Nc4cccc(CN5CCOCC5)c4)n3)ccc12 [GW682569]	true
CS(=O)(=O)c1cccc(CNc2nc(Nc3ccc4c(c3)[C@@H]3C[C@@H]4CNC3=O)ncc2C(F)(F)F)c1	true
Cn1ccc2ncnc(Oc3ccc(NC(=O)Nc4cccc(C(F)(F)F)c4)c(Cl)c3)c21	true
COc1cccc(OC)c1C(=O)Nc1cccc(-c2nn3ccccc3c2-c2ccnc(Nc3cccc(F)c3)n2)c1 [GSK361065]	false
CC(C)S(=O)(=O)N1CCN(Cc2ccc3c(c2)nc(NC(=O)c2ccsc2)n3C[C@H](O)c2ccccc2)CC1 [GW635815]	true
Cc1ccc2c(-c3ccnc(Nc4ccc(C(F)(F)F)cc4)n3)cnn2n1 [GW819776]	false
Cn1ccc2ncnc(Oc3ccc(NC(=O)Nc4cncc(C(F)(F)F)c4)c(Cl)c3)c21	true
CS(=O)(=O)Nc1ccc(-c2ccnc3[nH]ccc23)cc1 [GSK993273]	true
CSc1nccc(-c2c(-c3ccc(F)cc3)ncn2CCCN2CCOCC2)n1.Cl [SB-217146]	false
CN(c1ccccc1CNc1nc(Nc2ccc3c(c2)CC(=O)N3)ncc1C(F)(F)F)S(C)(=O)=O	true
